Target: Human ATX protein (Homo sapiens)
Construct: made in house
Test: ATX biochemical FRET assay with FS-3 substrate
Details: FRET substrate FS-3 2 μM, ATX 1.0 μg/mL, 30 minutes pre-incubation, 2 hours at room temperature; read-out: IC50
pIC50: −log10 of the molar value.
// pIC50 lookup, one value per entry

compound	value
CC(N[C@H]1C[C@@H](C(=O)O)C1(C)C)c1ccc2ccc(O[C@H]3CC[C@@H](C(F)(F)F)CC3)c(C(F)(F)F)c2c1 (stereo partly drawn)	≥ 7.00
CC(N[C@H]1C[C@@H](C(=O)O)C1(C)C)c1ccc2ccc(O[C@H]3CC[C@@H](C)CC3)c(Cl)c2c1 (relative stereo)	≥ 6.60

Okay, now this compound:
Inquiry: Query (compound): C[C@H](N[C@@H]1C[C@H](C(=O)O)C1(C)C)c1ccc2ccc(O[C@H]3CC[C@@H](C(F)(F)F)CC3)c(C(F)(F)F)c2c1 [Example 121b] ; field requested: pIC50
Reply text: ≥ 7.00

###

Target: Human ATX protein (Homo sapiens, UniProt Q13822)
Construct: made in house
Test: ATX biochemical FRET assay with FS-3 substrate
Settings: IC50, FRET substrate FS-3 2 μM, ATX 1.0 μg/mL, 30 minutes pre-incubation, 2 hours at room temperature
pIC50: −log10 of the molar value.
attribute.measured: pIC50

The cases that follow already have their pIC50 on record.
molecule	pIC50
CC(c1ccc2ccc(O[C@H]3CC[C@@H](C)CC3)c(C(F)F)c2c1)N1C2CCC1CC(C(=O)O)C2 (stereo partly shown)	≥ 7.00
CC[C@H]1CC[C@@H](Oc2ccc3ccc([C@H](C)N4C5CCC4CC(C(=O)O)C5)cc3c2C(F)(F)F)CC1 (stereo partly shown) [Example 144a]	≥ 6.30
CC[C@H]1CC[C@@H](Oc2ccc3ccc([C@@H](C)N4C5CCCC4CC(C(=O)O)C5)cc3c2C(F)(F)F)CC1 (stereo partly shown) [Example 133b]	≥ 6.60
CC(c1ccc2ccc(O[C@H]3CC[C@@H](C)CC3)c(C#N)c2c1)N1C2CCC1CC(C(=O)O)C2 (stereo partly shown)	≥ 7.00
CC[C@H]1CC[C@@H](Oc2ccc3ccc(C(C)N4C5CCCC4CC(C(=O)OC)C5)cc3c2C(F)(F)F)CC1 (stereo partly shown)	≥ 6.60
CC(c1cc2c(C(F)(F)F)c(O[C@H]3CC[C@@H](C(F)(F)F)CC3)ccc2cc1F)N1C2CCC1CC(C(=O)O)C2 (stereo partly shown)	≥ 7.00
O=C(O)C1CC2CCC(C1)N2Cc1cc2c(C(F)(F)F)c(O[C@H]3CC[C@@H](C(F)(F)F)CC3)ccc2cc1F (stereo partly shown)	≥ 7.00
CC(C)[C@H]1CC[C@@H](Oc2ccc3ccc(CN4C5CCC4CC(C(=O)O)C5)cc3c2C(F)(F)F)CC1 (stereo partly shown)	≥ 7.00

Inquiry: Reported pIC50 for CC(c1ccc2ccc(O[C@H]3CC[C@@H](C(F)(F)F)CC3)c(C#N)c2c1)N1C2CCC1CC(C(=O)O)C2 (stereo partly shown) : what is it?
Reply text: ≥ 7.00

Inquiry: Another molecule to check: O=C(O)C1CC2CCC(C1)N2Cc1ccc2ccc(O[C@H]3CC[C@@H](C(F)(F)F)CC3)c(Cl)c2c1 (stereo partly shown)
Reply text: ≥ 6.60

Inquiry: Here is the next molecule: C[C@H]1CC[C@@H](Oc2ccc3ccc(CN4C5CCC4CC(C(=O)O)C5)cc3c2C#N)CC1 (stereo partly shown)
Reply text: ≥ 6.60

Inquiry: Now this one: CC[C@H]1CC[C@@H](Oc2ccc3ccc(CN4C5CCC4CC(C(=O)O)C5)cc3c2C(F)(F)F)CC1 (stereo partly shown)
Reply text: ≥ 7.00

Inquiry: Follow-up item: CC(c1ccc2ccc(O[C@H]3CC[C@@H](C)CC3)c(C#N)c2c1)N1C2CCCC1CC(C(=O)O)C2 (stereo partly shown)
Reply text: ≥ 7.00

Cited source: patent US10017506B2
